biological target: hRIPK1 (aa 1-375) fusion protein (Homo sapiens); construct: hRIPK1 (aa 1-375) fusion protein; assay: ADP-Glo kinase assay: catalytic activity of RIPK1 (autophosphorylation, conversion of ATP to ADP); assay type: biochemical
Sequence (Q13546 1-375): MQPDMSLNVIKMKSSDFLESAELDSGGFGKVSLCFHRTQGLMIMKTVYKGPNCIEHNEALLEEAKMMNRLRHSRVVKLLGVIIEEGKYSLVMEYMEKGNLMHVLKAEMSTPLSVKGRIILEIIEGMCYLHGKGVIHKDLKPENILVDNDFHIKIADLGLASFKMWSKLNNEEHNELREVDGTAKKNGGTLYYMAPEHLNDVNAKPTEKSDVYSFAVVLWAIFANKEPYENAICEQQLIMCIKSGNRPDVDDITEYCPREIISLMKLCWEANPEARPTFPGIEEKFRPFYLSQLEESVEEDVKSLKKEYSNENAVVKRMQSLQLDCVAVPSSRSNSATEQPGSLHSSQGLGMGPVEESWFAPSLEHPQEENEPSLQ
reported endpoint: pIC50
Scale note: pIC50 = -log10(concentration in M).

Looking up Cc1nn(C[C@H]2CC[C@H](C(=O)N3OCC[C@H]3c3cc(F)cc(C#N)c3)CC2)c2cc(C#N)c(F)cc12 , I found its pIC50 recorded as 7.68

Looking up N#Cc1cnc2cn(C[C@H]3CC[C@H](C(=O)N4OCC[C@H]4c4cc(F)cc(F)c4)CC3)nc2c1 , I found its pIC50 recorded as 7.17

Looking up Cc1cc(C[C@H]2CC[C@H](C(=O)N3OCC[C@H]3c3coc(C)n3)CC2)c(C)cn1 , I found its pIC50 recorded as 7.46

Looking up N#Cc1cncc(C[C@H]2CC[C@H](C(=O)N3OCC[C@H]3c3cc(F)cc(C#N)c3)CC2)c1 , I found its pIC50 recorded as 7.89

Looking up Cc1ccc(C[C@H]2CC[C@H](C(=O)N3OCC[C@H]3c3cc(F)cc(C#N)c3)CC2)cc1C#N , I found its pIC50 recorded as 7.72

Looking up Cc1nc2ccc(C[C@H]3CC[C@H](C(=O)N4OCC[C@H]4c4cc(C#N)ccc4F)CC3)cn2n1 , I found its pIC50 recorded as 7.44

Looking up N#Cc1cc(F)cc([C@@H]2CCON2C(=O)[C@H]2CC[C@H](Cn3ccc4ncc(OC5COC5)cc43)CC2)c1 , I found its pIC50 recorded as 7.55

Looking up Cc1cn2cc(C[C@H]3CC[C@H](C(=O)N4OCC[C@H]4c4csc(C)n4)CC3)cc(F)c2n1 , I found its pIC50 recorded as 7.47

Looking up Cc1cc(C[C@H]2CC[C@H](C(=O)N3OCC[C@H]3c3cnccn3)CC2)cn2ncnc12 , I found its pIC50 recorded as 7.80

Looking up COc1cncc([C@@H]2CCON2C(=O)[C@H]2CC[C@H](Cc3ccc(C)c(C(N)=O)c3)CC2)n1 , I found its pIC50 recorded as 8.10

Looking up NC(=O)c1ccc2cn(C[C@H]3CC[C@H](C(=O)N4OCC[C@H]4c4cnccn4)CC3)nc2c1 , I found its pIC50 recorded as 7.19

Looking up N#Cc1cc(F)cc([C@@H]2CCON2C(=O)[C@H]2CC[C@H](Cc3ccc(CO)c(F)c3)CC2)c1 , I found its pIC50 recorded as 7.89

Looking up CNC(=O)c1ccc(F)c(C[C@H]2CC[C@H](C(=O)N3OCC[C@H]3c3cc(F)cc(F)c3)CC2)c1 , I found its pIC50 recorded as 7.72

Looking up O=C([C@H]1CC[C@H](Cc2cnccn2)CC1)N1OCC[C@H]1c1cnccn1 , I found its pIC50 recorded as 6.82

Looking up NC(=O)c1cc2c(ccn2C[C@H]2CC[C@H](C(=O)N3OCC[C@H]3c3cc(F)cc(F)c3)CC2)cc1F , I found its pIC50 recorded as 7.85
